target: rat MAO-B (Rattus norvegicus, UniProt P19643); construct: from tissue; host or cells: rat liver mitochondria (male Sprague-Dawley rats); assay: Rat MAO-B assay (Amplex Red fluorescence, rat liver mitochondria pre-treated with clorgyline 30 nM); type: biochemical; conditions: rat liver mitochondria pre-treated with clorgyline 30 nM; read-out: rat MAO-B (rat liver mitochondria) IC50
In this section, each of the compounds is paired with its reported IC50.

Example compounds with recorded IC50:
chemSmiles	IC50
COc1cc(NC(=O)c2ccc3[nH]ncc3c2)ccc1Cl	43.1 nM
Cn1cc2cc(C(=O)Nc3ccc(Cl)c(Cl)c3)ccc2n1	22.5 nM
COc1ccc(NC(=O)c2ccc3[nH]ncc3c2)cc1OC	1400 nM
Cn1cc2cc(C(=O)Nc3ccc(F)c(Cl)c3)ccc2n1	20.3 nM

Would you kindly look at the next entry?
For reference, reported IC50 for Cn1cc2cc(C(=O)Nc3ccc(F)c(F)c3)ccc2n1 stands at 221 nM

----------
In this section, each of the compounds is paired with its reported melting point.

Example compounds with recorded melting point:
chemSmiles	melting point
O=C(Nc1ccc(O)c(Cl)c1)c1ccc2[nH]ncc2c1	272.2 to 273.4 °C
Cn1ccc2cc(C(=O)Nc3ccc(Cl)c(Cl)c3)ccc21	178.9 to 180.3 °C

For reference, reported melting point for COc1ccc(NC(=O)c2ccc3[nH]ncc3c2)cc1Cl stands at 276.2 to 277.8 °C

----------
target: rat MAO-A (Rattus norvegicus, UniProt P21396); construct: from tissue; host or cells: rat liver mitochondria (male Sprague-Dawley rats); assay: Rat MAO-A assay (Amplex Red fluorescence, rat liver mitochondria pre-treated with deprenyl); type: biochemical; conditions: rat liver mitochondria, substrate p-tyramine; read-out: rat MAO-A (rat liver mitochondria) IC50
Sequence (P21396 whole entry): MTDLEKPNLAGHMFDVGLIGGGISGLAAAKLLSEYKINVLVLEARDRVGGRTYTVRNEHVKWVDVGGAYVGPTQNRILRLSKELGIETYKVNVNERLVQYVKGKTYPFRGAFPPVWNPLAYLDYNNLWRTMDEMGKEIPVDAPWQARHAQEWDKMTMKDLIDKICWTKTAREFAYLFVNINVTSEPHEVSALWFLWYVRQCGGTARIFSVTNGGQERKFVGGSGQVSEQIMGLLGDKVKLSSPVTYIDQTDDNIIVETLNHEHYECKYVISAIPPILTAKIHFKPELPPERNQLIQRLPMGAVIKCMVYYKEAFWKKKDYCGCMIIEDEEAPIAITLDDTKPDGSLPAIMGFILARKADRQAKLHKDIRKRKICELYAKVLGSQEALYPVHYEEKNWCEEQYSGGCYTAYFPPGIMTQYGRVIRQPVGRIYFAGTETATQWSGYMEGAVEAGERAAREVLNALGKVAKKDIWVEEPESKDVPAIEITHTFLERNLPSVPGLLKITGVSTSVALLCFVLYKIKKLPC
pIC50: −log10 of the molar value.
parameterMeasured: pIC50

Example compounds with recorded pIC50:
chemSmiles	targetDesc	endpointResult
O=C(Nc1ccc(Cl)c(O)c1)c1ccc2[nH]ncc2c1	rat MAO-A (Rattus norvegicus, UniProt P21396)	< 5.00
COc1ccc(NC(=O)c2ccc3[nH]ncc3c2)cc1OC	rat MAO-A (Rattus norvegicus, UniProt P21396)	< 5.00

For reference, reported pIC50 for O=C(Nc1cnc(Cl)c(Cl)c1)c1ccc2[nH]ncc2c1 stands at > 5.00

----------
Biological target: rat MAO-B (Rattus norvegicus, UniProt P19643)
Construct: from tissue; host or cells: rat liver mitochondria (male Sprague-Dawley rats)
Sequence (P19643 1-520): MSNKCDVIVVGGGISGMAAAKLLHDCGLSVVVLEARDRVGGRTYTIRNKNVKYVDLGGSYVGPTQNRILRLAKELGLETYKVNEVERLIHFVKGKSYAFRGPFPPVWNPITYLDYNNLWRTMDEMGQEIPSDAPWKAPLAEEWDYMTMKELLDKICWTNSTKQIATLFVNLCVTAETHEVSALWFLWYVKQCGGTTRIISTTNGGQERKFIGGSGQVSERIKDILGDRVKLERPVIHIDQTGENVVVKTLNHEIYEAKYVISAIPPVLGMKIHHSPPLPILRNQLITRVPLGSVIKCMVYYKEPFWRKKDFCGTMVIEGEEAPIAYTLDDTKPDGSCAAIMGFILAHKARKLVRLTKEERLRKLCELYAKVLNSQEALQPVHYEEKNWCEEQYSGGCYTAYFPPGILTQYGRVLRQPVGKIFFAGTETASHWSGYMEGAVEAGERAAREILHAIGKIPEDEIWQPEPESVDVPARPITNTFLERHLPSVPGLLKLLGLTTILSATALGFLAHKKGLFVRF
Assay: Rat MAO-B assay (Amplex Red fluorescence, rat liver mitochondria pre-treated with clorgyline 30 nM)
Type: biochemical
Settings: rat liver mitochondria pre-treated with clorgyline 30 nM; read-out: rat MAO-B (rat liver mitochondria) IC50
The recorded IC50 of each item maps onto one of these classes: low end: < 3 nM; middle: ≥ 3 nM and < 30 nM; high end: ≥ 30 nM

chemSmiles	targetDesc	category
COc1ccc(NC(=O)c2ccc3[nH]ncc3c2)cc1Cl	rat MAO-B (Rattus norvegicus, UniProt P19643)	middle
Cn1ncc2cc(C(=O)Nc3ccc(F)c(Cl)c3)ccc21	rat MAO-B (Rattus norvegicus, UniProt P19643)	low end
Cn1ncc2cc(C(=O)Nc3ccc(F)c(F)c3)ccc21	rat MAO-B (Rattus norvegicus, UniProt P19643)	middle
O=C(Nc1ccc(Cl)c(F)c1)c1ccc2[nH]ncc2c1	rat MAO-B (Rattus norvegicus, UniProt P19643)	low end
Cn1ncc2cc(C(=O)Nc3ccc(Cl)c(Cl)c3)ccc21	rat MAO-B (Rattus norvegicus, UniProt P19643)	low end

Would you mind sorting O=C(Nc1cnc(Cl)c(Cl)c1)c1ccc2[nH]ncc2c1 into the appropriate category?
middle

Would you mind sorting O=C(Nc1ccc(F)c(F)c1)c1ccc2[nH]ncc2c1 into the appropriate category?
middle

Would you mind sorting O=C(Nc1ccc(Cl)c(O)c1)c1ccc2[nH]ncc2c1 into the appropriate category?
high end

Would you mind sorting O=C(Nc1ccc(O)c(Cl)c1)c1ccc2[nH]ncc2c1 into the appropriate category?
high end
